These data points were gathered from patent US4526890A.

Assay: Audiogenic convulsive side effects (sound challenge: tonic convulsions and fatalities)
Settings: mouse, in vivo, ip
test readout: LD50 (mg/kg)
Form entry: value (mg/kg) — number only.

Q: // LD50 lookup, key: Cc1nnc2c3c(c(N4CCN(C)CC4)nn12)C1CCC3C1 (stereo not shown)
Result: 147

Q: I'd like to know its LD50. The compound in question is Cc1cc2nncn2nc1N1CCCC1
Result: 176

Q: Fill in: LD50 of Cc1c(N2CCCC2)nn2cnnc2c1C is ___
Result: 277

Q: Quick one: LD50 of Cc1cc2nncn2nc1N1CCOCC1 ?
Result: 280
